B1: Connector enhancer of kinase suppressor of ras 2, residues 9 to 71; numbered along this chain, Q8WXI2 (parent)
chain: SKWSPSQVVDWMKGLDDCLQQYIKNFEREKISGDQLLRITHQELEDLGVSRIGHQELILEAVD

Variants of: B1
Assay: abundance fitness (aPCA) (normalised: wild type 0, dead -1); higher = more abundant; growth selection in yeast, the domain comes from the species named
Details: Homo sapiens
Lab note: compare abundance fitness against -0.07. Equal or greater, write 1 (yes). Smaller, write 0 (no).

Some entries whose results are on file:
R51F : 1 (yes)
R51P : 1 (yes)
D34Q : 1 (yes)

Prompt: Is abundance fitness at least -0.07? Consider `I23C`
Completion: 1 (yes)

Prompt: Is abundance fitness at least -0.07? Consider `D16L`
Completion: 0 (no)

Prompt: Is abundance fitness at least -0.07? Consider `I52T`
Completion: 1 (yes)

Prompt: Is abundance fitness at least -0.07? Consider `H41M`
Completion: 0 (no)

Prompt: Is abundance fitness at least -0.07? Consider `G33A`
Completion: 0 (no)

Prompt: Is abundance fitness at least -0.07? Consider `T40V`
Completion: 0 (no)
